# experimentNotes: Apparent permeability across human Caco-2 cells
# Format: ADME, cell-based
measurementName: Papp (×10⁻⁶ cm/s)
Numbers only here, please. The scale is ×10⁻⁶ cm/s.

Field Papp (entry CC(=O)N1CCCC1(Cc1ccc(S(C)(=O)=O)cc1)C(=O)OCc1ccccc1 (stereo in doubt; 13) ) reads 31

----------
# experimentNotes: Intrinsic clearance in rat microsomes assessed per mg of protein
# Assay type: ADME, Microsome
measurementName: microsomal CLint (µL/min/mg)
Numbers only here, please. The scale is µL/min/mg.

Solved entries (count: 3):
CC(=O)N1CCCC1(Cc1ccc(F)c(C(F)(F)F)c1)C(=O)OCc1ccccc1 (centres undefined) | 356
CC(=O)N1CCCC1(Cc1ccc(C(F)(F)F)cc1)C(=O)OCc1ccccc1 (centres undefined) | 128
CC(=O)N1CCCC1(Cc1cccc(S(C)(=O)=O)c1)C(=O)OCc1ccccc1 (centres undefined) | 107

Query compound follows.
Field microsomal CLint (entry CS(=O)(=O)N1CCCC1(Cc1ccccc1)C(=O)OCc1ccccc1 (centres undefined) ) reads 400
